Here the recorded TGI is given for each entry.
System: UO-31 renal
Assay Notes: NCI tumour cell line growth inhibition, 48 h
Your answer is read as µM, so omit the unit and give the number.

*Q* Could you share which TGI value was measured for Cn1ccnc1C(=O)/C=C/c1ccc(CC(=O)Nc2ccccc2)cc1 ?
*A* 5.86

*Q* Could you share which TGI value was measured for CN(C)CCOc1ccc2c(c1)C/C(=C/c1ncc([N+](=O)[O-])n1C)C2=O ?
*A* 3.61

*Q* Could you share which TGI value was measured for CN(C)c1ccc2cc(-c3ccccc3F)c(N)nc2c1 ?
*A* 16.5

*Q* Could you share which TGI value was measured for N/C(=N/n1c(=S)[nH]c2ccccc2c1=O)Nn1c(=S)[nH]c2ccccc2c1=O ?
*A* 27.3

*Q* Could you share which TGI value was measured for C=CC[C@H]1[C@H](O[Si](C)(C)C(C)(C)C)C=CC(=O)[C@@H]1CC(=O)N(Cc1ccccc1)Cc1ccccc1 ?
*A* 41.2

*Q* Could you share which TGI value was measured for C=C1CC[C@@H]2[C@](C)(COC(C)=O)[C@H](OC(C)=O)CC[C@@]2(C)[C@@H]1CC(Nc1ccc(S(=O)(=O)Nc2nccc(C)n2)cc1)C1=CCOC1=O (stereo not given in full) ?
*A* 10.6
